target.or.system: A*02:07
method: SPR; low fitting confidence
quantity.kind: Kd

# lookup: Kd of AS170036 VL1VH1-57M98Q (scFv) scFv: QSALTQPRSVSGSPGQSVTISCAGTSSDVGSENYVSWYQQHPGKAPKLMIYQVNKRASGVPDRFSGSKSGNTASLTISGLQAEDEADYYCASYRSSDQNIVFGGGTKLTVLGGGGSGGGGSGGGGSEVQLVESGGGLVQPGGSLRLSCAASGFTFSSYAMSWVRQAPGKGLEWVSTINSGTGMPYYADSVKGRFTISRDNSKNTLYLQMNSLRAEDTAVYYCAKNFFDGSWFLGPPAMDYWGQGTLVTVSSHHHHHH
> 19 µM
